- systemUnderTest: human μ-calpain (Homo sapiens)
- Sequence (P07384 1-714): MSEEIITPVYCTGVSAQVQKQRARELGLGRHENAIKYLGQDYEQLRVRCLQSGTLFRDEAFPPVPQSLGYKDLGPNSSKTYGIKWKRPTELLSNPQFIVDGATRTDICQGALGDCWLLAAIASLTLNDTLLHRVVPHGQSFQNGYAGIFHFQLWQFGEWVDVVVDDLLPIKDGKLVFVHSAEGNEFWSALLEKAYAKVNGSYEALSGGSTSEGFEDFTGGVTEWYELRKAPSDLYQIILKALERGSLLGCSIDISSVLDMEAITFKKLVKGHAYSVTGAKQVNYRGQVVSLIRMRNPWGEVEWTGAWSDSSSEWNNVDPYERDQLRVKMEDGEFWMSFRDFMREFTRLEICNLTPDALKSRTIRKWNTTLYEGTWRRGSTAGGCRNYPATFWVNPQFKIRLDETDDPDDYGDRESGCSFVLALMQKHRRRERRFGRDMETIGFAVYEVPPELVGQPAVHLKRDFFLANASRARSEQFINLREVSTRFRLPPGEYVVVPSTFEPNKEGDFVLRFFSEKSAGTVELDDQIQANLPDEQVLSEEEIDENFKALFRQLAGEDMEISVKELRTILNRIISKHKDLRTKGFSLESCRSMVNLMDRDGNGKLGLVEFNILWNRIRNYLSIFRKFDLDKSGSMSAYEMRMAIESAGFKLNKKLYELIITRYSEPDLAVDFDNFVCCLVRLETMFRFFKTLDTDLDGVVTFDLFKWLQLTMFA
- Sequence (P04632 1-268 partner): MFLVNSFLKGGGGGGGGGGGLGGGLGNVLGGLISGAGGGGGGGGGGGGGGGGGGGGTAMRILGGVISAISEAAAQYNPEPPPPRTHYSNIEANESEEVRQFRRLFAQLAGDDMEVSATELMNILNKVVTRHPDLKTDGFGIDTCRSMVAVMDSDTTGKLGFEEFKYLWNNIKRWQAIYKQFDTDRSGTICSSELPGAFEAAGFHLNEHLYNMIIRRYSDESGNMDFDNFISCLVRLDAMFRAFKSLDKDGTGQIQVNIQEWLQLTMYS
Label TRUE when IC50 is strictly below 80 nM; at or above that, label FALSE.

Consider the worked cases shown below.
[[record]]
compound = "CCNC(=O)C(=O)[C@H](Cc1ccccc1)NC(=O)[C@@H](NC(=O)CNC(=O)CCCCC1CCSS1)C(C)C (some centres unmarked)"
systemundertest = "human μ-calpain (Homo sapiens)"
class = "TRUE"

[[record]]
compound = "CCNC(=O)C(=O)[C@H](Cc1ccccc1)NC(=O)[C@H](CC(C)C)NC(=O)CCCCC1CCS[S+]1[O-] (some centres unmarked)"
systemundertest = "human μ-calpain (Homo sapiens)"
class = "FALSE"

[[record]]
compound = "Cc1ccc(S(=O)(=O)CNC(=O)C(=O)[C@H](Cc2ccc(Cl)cc2)NC(=O)[C@@H](NC(=O)CCCCC2CCS[S+]2[O-])C(C)C)cc1 (some centres unmarked)"
systemundertest = "human μ-calpain (Homo sapiens)"
class = "FALSE"

[[record]]
compound = "CCNC(=O)C(=O)[C@H](Cc1ccc(C#N)cc1)NC(=O)[C@@H](NC(=O)CCCCC1CCS[S+]1[O-])C(C)C (some centres unmarked)"
systemundertest = "human μ-calpain (Homo sapiens)"
class = "FALSE"

[[record]]
compound = "CCNC(=O)C(=O)[C@H](Cc1ccc(Cl)cc1)NC(=O)[C@H](CC(C)(C)C)NC(=O)CCCCC1CCSS1 (some centres unmarked)"
systemundertest = "human μ-calpain (Homo sapiens)"
class = "FALSE"

[[record]]
compound = "CCNC(=O)C(=O)[C@H](Cc1ccc(Br)cc1)NC(=O)[C@@H](NC(=O)CCCCC1CCS[S+]1[O-])C(C)CC (some centres unmarked)"
systemundertest = "human μ-calpain (Homo sapiens)"
class = "FALSE"

[[record]]
compound = "CCNC(=O)C(=O)[C@H](Cc1ccc(Cl)cc1)NC(=O)[C@@H](NC(=O)CCCCC1CCCS1)C(C)C (some centres unmarked)"
systemundertest = "human μ-calpain (Homo sapiens)"
class = "FALSE"

[[record]]
compound = "CCNC(=O)C(=O)[C@H](Cc1ccccc1)NC(=O)[C@H](CC(C)C)NC(=O)CNC(=O)CCCCC1CCSS1 (some centres unmarked)"
systemundertest = "human μ-calpain (Homo sapiens)"
class = "TRUE"

[[record]]
compound = "CCNC(=O)C(=O)[C@H](Cc1ccc(Br)cc1)NC(=O)[C@H](CC(C)C)NC(=O)CCCCC1CCSS1 (some centres unmarked)"
systemundertest = "human μ-calpain (Homo sapiens)"
class = "TRUE"

[[record]]
compound = "CCNC(=O)C(=O)[C@H](Cc1ccc(F)cc1)NC(=O)[C@@H](NC(=O)CCCCC1CCS[S+]1[O-])C(C)C (some centres unmarked)"
systemundertest = "human μ-calpain (Homo sapiens)"
class = "FALSE"


Ask: Please determine if CCNC(=O)C(=O)[C@H](Cc1ccc(C(C)(C)C)cc1)NC(=O)[C@H](CC(C)C)NC(=O)CCCCC1CCSS1 (some centres unmarked) is below 80 nM in terms of IC50.
Result: FALSE

Ask: Please determine if CCNC(=O)C(=O)[C@H](Cc1ccc(C#N)cc1)NC(=O)[C@H](CC(C)C)NC(=O)CCCCC1CCS[S+]1[O-] (some centres unmarked) is below 80 nM in terms of IC50.
Result: TRUE
